A collection of binders and their measured hAPJ Ca2+ Flux EC50
Target: T1, human APJ receptor (hAPJ) (human, UniProt P35414 1-380)
T1 sequence (looked up): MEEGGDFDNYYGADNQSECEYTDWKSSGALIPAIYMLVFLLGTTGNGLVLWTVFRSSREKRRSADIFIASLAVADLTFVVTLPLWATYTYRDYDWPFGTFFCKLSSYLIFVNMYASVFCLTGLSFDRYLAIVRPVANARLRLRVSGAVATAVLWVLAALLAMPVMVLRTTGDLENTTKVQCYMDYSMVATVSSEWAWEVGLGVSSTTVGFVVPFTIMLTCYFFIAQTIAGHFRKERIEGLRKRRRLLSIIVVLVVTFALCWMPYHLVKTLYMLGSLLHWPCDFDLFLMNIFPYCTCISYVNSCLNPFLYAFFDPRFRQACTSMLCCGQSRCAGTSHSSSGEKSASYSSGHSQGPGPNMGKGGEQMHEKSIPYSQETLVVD
Assay: cell-based or functional assay
Bridges are numbered along the chain shown (N, C = ends). [ ]: non-standard residue; d: D form. pGlu = O=C1CC[C@@H](C(=O)O)N1; d(hCys) = N[C@H](CCS)C(=O)O; hCys = N[C@@H](CCS)C(=O)O; Nle = CCCC[C@H](N)C(=O)O; Dab = NCC[C@H](N)C(=O)O
readout label: hAPJ Ca2+ Flux EC50

[pGlu]RPRLCHKGP[Nle]CE-OH (disulfide 6-12; SMILES CCCC[C@@H]1NC(=O)[C@@H]2CCCN2C(=O)CNC(=O)[C@H](CCCCN)NC(=O)[C@H](Cc2c[nH]cn2)NC(=O)[C@@H](NC(=O)[C@H](CC(C)C)NC(=O)[C@H](CCCNC(=N)N)NC(=O)[C@@H]2CCCN2C(=O)[C@H](CCCNC(=N)N)NC(=O)[C@@H]2CCC(=O)N2)CSSC[C@@H](C(=O)N[C@@H](CCC(=O)O)C(=O)O)NC1=O) [Example 49: pE-R-P-R-L-C-H-K-G-P-Nle-C-E-OH] :: 34.2 nM
[pGlu]RPRL[d(hCys)]HKGP[Nle][d(hCys)]F-OH (disulfide 6-12; SMILES CCCC[C@@H]1NC(=O)[C@@H]2CCCN2C(=O)CNC(=O)[C@H](CCCCN)NC(=O)[C@H](Cc2c[nH]cn2)NC(=O)[C@H](NC(=O)[C@H](CC(C)C)NC(=O)[C@H](CCCNC(=N)N)NC(=O)[C@@H]2CCCN2C(=O)[C@H](CCCNC(=N)N)NC(=O)[C@@H]2CCC(=O)N2)CCSSCC[C@H](C(=O)N[C@@H](Cc2ccccc2)C(=O)O)NC1=O) [Example 55: pE-R-P-R-L-(D-hC)-H-K-G-P-Nle-(D-hC)-F-OH] :: 8.16 nM
[pGlu]RCRLCCKGP[Nle]CF-OH (disulfide 6-12, 3-7) [Example 29: pE-R-C-R-L-C-C-K-G-P-Nle-C-F-OH] :: 4.33 nM
[pGlu]RPRL[hCys]HKGP[Nle][hCys]F-OH (disulfide 6-12; SMILES CCCC[C@@H]1NC(=O)[C@@H]2CCCN2C(=O)CNC(=O)[C@H](CCCCN)NC(=O)[C@H](Cc2c[nH]cn2)NC(=O)[C@@H](NC(=O)[C@H](CC(C)C)NC(=O)[C@H](CCCNC(=N)N)NC(=O)[C@@H]2CCCN2C(=O)[C@H](CCCNC(=N)N)NC(=O)[C@@H]2CCC(=O)N2)CCSSCC[C@@H](C(=O)N[C@@H](Cc2ccccc2)C(=O)O)NC1=O) [Example 52: pE-R-P-R-L-hC-H-K-G-P-Nle-hC-F-OH] :: 53.9 nM
[pGlu]RPRLCFKGP[Nle]CF-OH (disulfide 6-12; SMILES CCCC[C@@H]1NC(=O)[C@@H]2CCCN2C(=O)CNC(=O)[C@H](CCCCN)NC(=O)[C@H](Cc2ccccc2)NC(=O)[C@@H](NC(=O)[C@H](CC(C)C)NC(=O)[C@H](CCCNC(=N)N)NC(=O)[C@@H]2CCCN2C(=O)[C@H](CCCNC(=N)N)NC(=O)[C@@H]2CCC(=O)N2)CSSC[C@@H](C(=O)N[C@@H](Cc2ccccc2)C(=O)O)NC1=O) [Example 15: pE-R-P-R-L-C-F-K-G-P-Nle-C-F-OH] :: 3.53 nM
[pGlu]RPRL[Dab]HFGP[Nle]D-Phenethylamine (lactam 6-12) [Example 4: pE-R-P-R-L-Dab-H-F-G-P-Nle-D-Phenethylamine] :: 747 nM
